- ASSAYED_TARGET: Cytochrome P450 2C9 (Homo sapiens)
- Sequence (P11712 whole entry): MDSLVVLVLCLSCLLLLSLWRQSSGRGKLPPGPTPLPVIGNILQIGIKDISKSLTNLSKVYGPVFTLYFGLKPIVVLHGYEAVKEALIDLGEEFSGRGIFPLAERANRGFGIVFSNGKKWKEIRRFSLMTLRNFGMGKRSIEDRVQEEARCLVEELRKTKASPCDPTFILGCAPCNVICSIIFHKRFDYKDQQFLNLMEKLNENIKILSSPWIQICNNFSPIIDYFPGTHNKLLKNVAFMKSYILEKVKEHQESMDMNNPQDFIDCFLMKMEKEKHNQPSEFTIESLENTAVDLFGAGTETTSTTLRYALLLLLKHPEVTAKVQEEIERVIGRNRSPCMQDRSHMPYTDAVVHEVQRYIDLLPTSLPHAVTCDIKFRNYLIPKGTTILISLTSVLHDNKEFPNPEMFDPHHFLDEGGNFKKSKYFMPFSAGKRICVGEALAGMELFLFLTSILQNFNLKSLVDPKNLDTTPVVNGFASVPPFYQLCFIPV
- PROTOCOL_NOTES: Inhibition of recombinant CYP2C9 by fluorescent P450 inhibition assay
pIC50: −log10 of the molar value.
VALUE_TYPE: pIC50

Can you share its pIC50? I mean this compound: Cc1ccn(-c2ccc(C(=O)N3CCC(F)(F)/C(=C\C(=O)O)c4ccccc43)c(Cl)c2)n1
< 4.70

====

- Species: Homo sapiens
- PROTOCOL_NOTES: Selectivity for human V1a receptor to human V2 receptor
Rule: Ratio Ki of 3 or more gives satisfied; anything lower gives not satisfied.

Example cases with answers are listed next.
STRUCTURE | CLASSIFICATION
Cc1ccn(-c2ccc(C(=O)N3CCC(F)(F)/C(=C\C(=O)NCc4ccccc4)c4ccccc43)c(Cl)c2)n1 | not satisfied
Cc1ccn(-c2ccc(C(=O)N3CCC(F)(F)/C(=C\C(=O)O)c4ccccc43)c(Cl)c2)n1 | satisfied
Cc1ccn(-c2ccc(C(=O)N3CCC(F)(F)/C(=C\C(=O)NCCN(C)C)c4ccccc43)c(Cl)c2)n1 | not satisfied

Next up:
Decide: is the reported value of Ratio Ki for Cc1ccn(-c2ccc(C(=O)N3CCC(F)(F)/C(=C\C(=O)NCc4nc5ccccc5s4)c4ccccc43)c(Cl)c2)n1 equal to or greater than 3?
satisfied
